# Target Under Test: Thermus-derived MetRS (Thermus thermophilus)
# Construct: host or cells: Escherichia coli BL21 (DE3)
# Sequence (P23395 whole entry): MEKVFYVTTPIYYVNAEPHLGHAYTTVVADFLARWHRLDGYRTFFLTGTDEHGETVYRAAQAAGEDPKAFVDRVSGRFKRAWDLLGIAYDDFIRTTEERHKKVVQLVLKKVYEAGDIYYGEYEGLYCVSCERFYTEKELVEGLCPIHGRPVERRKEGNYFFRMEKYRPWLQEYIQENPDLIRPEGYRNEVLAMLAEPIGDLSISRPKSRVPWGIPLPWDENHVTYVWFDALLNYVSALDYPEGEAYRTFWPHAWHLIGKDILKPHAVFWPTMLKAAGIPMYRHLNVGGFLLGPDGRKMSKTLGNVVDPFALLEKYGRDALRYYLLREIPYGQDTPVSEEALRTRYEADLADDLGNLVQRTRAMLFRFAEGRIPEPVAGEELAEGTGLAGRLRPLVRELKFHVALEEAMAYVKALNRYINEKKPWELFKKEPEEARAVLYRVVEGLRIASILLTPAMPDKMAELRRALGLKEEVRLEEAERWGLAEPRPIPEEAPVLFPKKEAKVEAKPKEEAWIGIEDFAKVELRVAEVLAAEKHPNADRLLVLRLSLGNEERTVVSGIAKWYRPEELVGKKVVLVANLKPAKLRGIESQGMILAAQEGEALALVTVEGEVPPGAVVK
# Assay Notes: Qualitative test of AARS substrate specificity (AARS activity at 70° C.)
# Format: biochemical, Thermus thermophilus HB8 strain
# Set-up: key: +: Activity was detected; −: Activity was not detected
# Protocol Conditions: amino acids 200 μM, hydroxylamine 400 mM
Property Label: Detection of the activity (pyrophosphate production), MetRS (Thermus)

                       line_notation  test_result
 0           N[C@@H](CCC(=O)O)C(=O)O            −
 1          N=C(N)NCCC[C@H](N)C(=O)O            −
 2                CSCC[C@H](N)C(=O)O            +
 3            N[C@@H](CC(=O)O)C(=O)O            −
 4          CC[C@H](C)[C@H](N)C(=O)O            −
 5                          NCC(=O)O            −
 6        N[C@@H](Cc1c[nH]cn1)C(=O)O            −
 7                 N[C@@H](CS)C(=O)O            −
 8            NC(=O)CC[C@H](N)C(=O)O            −
 9                O=C(O)[C@@H]1CCCN1            −
10          C[C@@H](O)[C@H](N)C(=O)O            −
11       N[C@@H](Cc1ccc(O)cc1)C(=O)O            −
12                   C[C@H](N)C(=O)O            −
13  N[C@@H](Cc1c[nH]c2ccccc12)C(=O)O            −
14               CC(C)[C@H](N)C(=O)O            −
15               NCCCC[C@H](N)C(=O)O            −
16                 N[C@@H](CO)C(=O)O            −
17              CC(C)C[C@H](N)C(=O)O            −
18          N[C@@H](Cc1ccccc1)C(=O)O            −
19             NC(=O)C[C@H](N)C(=O)O            −
